TEST PROTOCOL: Stability of the analytes in rat plasma QC samples
Format: in vitro ADME
CONDITION INFO: relative error, −20 °C for 21 d, medium QC spiked concentration
QUANTITY: Long-tern stability: Accuracy (%)
Provide only the numeric value, understood in %.

C[C@@H]1O[C@@H](OC[C@H]2O[C@@H](Oc3c(-c4ccc(O)c(O)c4)oc4cc(O)cc(O)c4c3=O)[C@H](O)[C@@H](O)[C@@H]2O)[C@H](O)[C@H](O)[C@H]1O	4.68

Per the record, "O=c1cc(-c2ccc(O)c(O)c2)oc2cc(O)cc(O)c12" has Long-tern stability: Accuracy of 8.32

Per the record, C[C@@H]1O[C@@H](O[C@@H]2[C@@H](O)[C@H](OCCc3ccc(O)c(O)c3)O[C@H](CO)[C@H]2OC(=O)/C=C/c2ccc(O)c(O)c2)[C@H](O)[C@H](O)[C@H]1O [Acteoside, acteoside] has Long-tern stability: Accuracy of 4.16

Per the record, "O=c1c(O)c(-c2ccc(O)c(O)c2)oc2cc(O)cc(O)c12" has Long-tern stability: Accuracy of 5.43

Per the record, "O=c1cc(-c2ccc(O)cc2)oc2cc(O)cc(O)c12" has Long-tern stability: Accuracy of 6.48

Per the record, "COc1ccc(-c2cc(=O)c3c(O)cc(O)cc3o2)cc1" has Long-tern stability: Accuracy of 1.38
